Data credit: patent US7132231B2

# EXPERIMENT: Cytotoxicity assay (XTT / crystal violet)
# Type: cell-based, African green monkey
# CONDITION_CONTEXT: monkey, vero cells; Vero cell line; read-out: 50% toxic dose
READOUT: CC50

// query I am curious: what CC50 value has been reported for O=C(Nc1cccc2nsnc12)c1cc(Br)ccc1NS(=O)(=O)c1ccc(Cl)cc1 ?
// result 50 µM

====

# ASSAYED_SYSTEM: Pol/UL42 interaction (Oregon Green-peptide E / MBP-UL42Δ340) (Human herpesvirus 1, UniProt P10226)
# Construct: peptide E synthetic
# Sequence (P10226 1-339, stated change not applied): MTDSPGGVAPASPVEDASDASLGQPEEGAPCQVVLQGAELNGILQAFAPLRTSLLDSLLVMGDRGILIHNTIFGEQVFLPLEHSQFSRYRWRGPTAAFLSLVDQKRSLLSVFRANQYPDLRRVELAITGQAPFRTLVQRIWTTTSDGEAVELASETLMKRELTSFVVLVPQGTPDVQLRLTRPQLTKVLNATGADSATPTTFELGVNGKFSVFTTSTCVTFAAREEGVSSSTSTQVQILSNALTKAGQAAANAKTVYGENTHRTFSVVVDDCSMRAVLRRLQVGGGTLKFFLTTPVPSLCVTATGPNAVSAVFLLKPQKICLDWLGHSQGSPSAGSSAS
# EXPERIMENT: Fluorescence polarization (FP) assay of Pol peptide/UL42 binding
Recorded IC50 values for a group of molecules are listed next.
The response must be a number in µM with no trailing unit.

Known IC50 results, listed for orientation:
1) CSCCC(C(=O)O)N1C(=O)/C(=C/c2ccc(Cl)cc2Cl)SC1=S (stereo not shown) [BP9]; 48
2) O=C(Nc1cccc2nsnc12)c1cc(Br)ccc1NS(=O)(=O)c1ccc(Cl)cc1 [BP5]; 15

// query I am curious: what IC50 value has been reported for CC(C)C(C(=O)O)N1C(=O)/C(=C/c2ccc(Cl)cc2Cl)SC1=S (stereo not shown) [BP3] ?
// result 12

// query I am curious: what IC50 value has been reported for Cc1ccc(C(C)C)cc1OCC(=O)NN=Cc1cc([N+](=O)[O-])ccc1O [BP1] ?
// result 35
